Listed here: items and their measured melting point.
// return numeric value only (unit: °C, not printed)

Some molecules with recorded melting point:
molecule	melting point (°C)
CC(=O)C1CCC2(C)C(CC(=O)C3C4CCC(=O)C4(C)CCC32)C1 (stereo not drawn)	237
CC1CN1 (stereo not drawn)	-65
CC(C)C(Br)C(=O)NC(N)=O (stereo not drawn)	154
O=C(O)/C=C/Cl	82
CCCC(C)OC(C)=O (stereo not drawn)	-100

# input Which melting point is listed for `Ic1ncc[nH]1` ?
# output 191

# input Which melting point is listed for `COc1ccc(CC(=O)C(=O)O)cc1` ?
# output 194

# input Which melting point is listed for `Clc1ccc(-c2cc3ccccc3[nH]2)cc1` ?
# output 206

# input Which melting point is listed for CCCCCOC(=O)Nc1nc(=O)n(C2OC(C)C(O)C2O)cc1F (stereo not drawn) ?
# output 116

====

attribute_measured: melting point

Some compounds with recorded melting point:
compound	recorded_value
O=C(O)c1c(F)c(F)c(F)c(F)c1C(=O)O	163 °C
O=C(O)C=Cc1cc(F)ccc1F	139 °C
Nc1cccc(-c2cccc(N)c2)c1	93.5 °C

# input Which melting point is listed for `CCc1n[nH]c2cc(-c3ccccc3)nn12` ?
# output 188 to 190 °C

# input Which melting point is listed for `CC(C)Oc1cc(-n2nc(C(C)(C)C)oc2=O)c(Cl)cc1Cl` ?
# output 90 °C

# input Which melting point is listed for `CCOC(=O)C(F)(F)F` ?
# output -78 °C

# input Which melting point is listed for `O=C(O)c1ccc2nonc2c1` ?
# output 157 to 158 °C

# input Which melting point is listed for `CCCCCCCCCCOc1ccc(C=O)cc1OCCCCCCCCCC` ?
# output 61 to 66 °C

====

Listed here: items and their measured melting point.

compound	melting point
CCOc1ccc([C@]2(C(=O)N3CCC[C@H](C)[C@@H]3C)CC2(Cl)Cl)cc1	160 °C
CN1CSC(=S)N(C)C1	106 °C

# input Which melting point is listed for `Cc1ccc(Sc2ncccc2C(N)=O)cc1` ?
# output 205 to 207 °C

# input Which melting point is listed for `O=C(c1ccccc1)c1ccc(Cl)c(Cl)c1` ?
# output 102 °C

# input Which melting point is listed for `CC(C)(C)c1ccc(OC(=O)c2ccccc2O)cc1` ?
# output 62 °C

# input Which melting point is listed for Cc1cc(C)c(C2(C)CC(C(=NO)c3cc4cc(Br)ccc4o3)C2)c(C)c1 (stereo not drawn) ?
# output 221 to 222 °C

# input Which melting point is listed for `CNC(=O)N(C)c1nc2ccccc2s1` ?
# output 120 °C

# input Which melting point is listed for `C#Cc1ccc(-c2ccccc2)cc1` ?
# output 80 to 87 °C

# input Which melting point is listed for CC(=O)OC1CC2C(C)C(=O)C3(C(OC(C)=O)CC4C5(C)CCCC4(C(OC(C)=O)OC5)C13)C2OC(C)=O (stereo not drawn) ?
# output 104 °C

# input Which melting point is listed for `Cn1c(=O)c(C2=NNC(=O)C2=CNc2ccc(Br)cc2)c(O)c2ccccc21` ?
# output 293 °C

# input Which melting point is listed for `O=[N+]([O-])c1ccc(-c2nn3c(C(F)(F)F)nnc3s2)cc1` ?
# output 213 °C

# input Which melting point is listed for `COC1=C(O)C(=O)C(C)=C(O)C1=O` ?
# output 202 °C

# input Which melting point is listed for `Cc1cc(C)c(CC(=O)c2oc3ccccc3c2NC(=O)Cc2ccccc2)c(C)c1` ?
# output 156 to 157 °C

# input Which melting point is listed for `COc1ccc(C(=CC(=O)N2CCOCC2)c2ccc(Cl)cc2)cc1OC` ?
# output 148 °C

# input Which melting point is listed for `Nc1c(Br)cccc1Br` ?
# output 87.5 °C

# input Which melting point is listed for `O=C(CCl)c1ccc(Cl)c(Cl)c1` ?
# output 44 °C
